I'd be grateful if you could share measured melting point for these entries.

Cc1cn(C[C@H]2CCCN(C(=O)[C@H]3CN([C@H]4c5ccccc5CCc5cc(Cl)cnc54)CCN3C(=O)OC3CCCCC3)C2)cn1 [Example 321]	112 to 121 °C

For every record below, what is its melting point?
1. CCc1cn(CC2CCCN(C(=O)C3CN(C4c5ccc(Cl)cc5CCc5cccnc54)CCN3C(=O)OC(C)(C)C)C2)cn1 (stereo not drawn) [35(D)]
2. Cc1cn(C[C@@H]2CCCN(C(=O)[C@H]3CN([C@H]4c5ccc(Cl)cc5CCc5cccnc54)CCN3C(=O)Cc3cc[n+]([O-])cc3)C2)cn1 [Example 412]
3. Cc1cn(CC2CCCCN(C(=O)C3CN(C4c5ccc(Cl)cc5CCc5cccnc54)CCN3C(=O)OC3CCCCC3)C2)cn1 (stereo not drawn) [Example 47(CC)]
4. Cc1ncn(CC2CCCN(C(=O)C3CN(C4c5ccc(Cl)cc5CCc5cccnc54)CCN3C(=O)OC3CCCCC3)C2)c1C (single isomer, unassigned) [47(G)]
5. CCc1cn(CC2CCCN(C(=O)C3CN(C4c5ccc(Cl)cc5CCc5cccnc54)CCN3C(=O)OC3CCCCC3)C2)cn1 (stereo not drawn) [47(D)]
6. Cc1cn(CC2CCCN(C(=O)C3CN(C4c5ccc(Cl)cc5CCc5cc(Br)cnc54)CCN3C(=O)OC(C)(C)C)C2)cn1 (stereo not drawn) [Example 4.2]

1: 79 to 81 °C; 2: 175 °C (dec.); 3: 108 to 113 °C; 4: 98 to 130 °C; 5: 66 to 68 °C; 6: 131 to 135 °C

For every record below, what is its melting point?
1. Cc1cn(CC2CCCN(C(=O)C3CN(C4c5ccc(Cl)cc5CCc5cc(F)cnc54)CCN3C(=O)OC3CCCCC3)C2)cn1 (stereo not drawn) [Example 287]
2. Cc1cn(CC2CCCN(C(=O)C3CN(C4c5ccccc5CCc5cc(Cl)cnc54)CCN3C(=O)OC(C)(C)C)C2)cn1 (single isomer, unassigned) [Example 293]

["116 to 123 °C", "110 to 123 °C"]

====

I'd be grateful if you could share measured melting point for these entries.

Answered cases to consult:
CS(=O)(=O)N1CCN(C2c3ccc(Cl)cc3CCc3cc(Br)cnc32)C[C@@H]1C(=O)N1CCC[C@@H]1Cn1ccnc1 (stereo partly drawn)	135 to 141 °C
Cc1nccn1CC1CCCN(C(=O)C2CN(C3c4ccc(Cl)cc4CCc4cccnc43)CCN2C(=O)OC2CCCCC2)C1 (single isomer, unassigned) [Example 47]	100 to 106 °C
CC(C)(C)OC(=O)N1CCN(C2c3ccc(Cl)cc3CCc3cccnc32)CC1C(=O)N1CCCC(Cn2ccnc2)C1 (stereo not drawn) [Example 25]	124 to 143 °C
Cc1cn(C[C@H]2CCCN(C(=O)[C@H]3CN([C@@H]4c5ccccc5CCc5cc(Cl)cnc54)CCN3C(=O)OC3CCCCC3)C2)cn1	117 to 125 °C
CC(C)(C)OC(=O)N1CCN([C@@H]2c3ccc(Cl)cc3CCc3cc(Br)cnc32)C[C@@H]1C(=O)N1CCC[C@H](Cn2ccnc2)C1	130 to 134 °C
Cc1cn(C[C@@H]2CCCN(C(=O)[C@H]3CN([C@@H]4c5ccc(Cl)cc5CCc5cc(Cl)cnc54)CCN3C(=O)OC3CCCCC3)C2)cn1	122 to 128 °C

For every record below, what is its melting point?
1. Cc1cn(C[C@@H]2CCCN(C(=O)[C@H]3CN([C@@H]4c5ccc(Cl)cc5CCc5cc(F)cnc54)CCN3C(=O)OC3CCCCC3)C2)cn1
2. Cc1cn(C[C@@H]2CCCN(C(=O)[C@H]3CN(C4c5ccccc5CCc5ccccc54)CCN3C(=O)OC3CCCCC3)C2)cn1
3. Cc1cn(C[C@@H]2CCCN(C(=O)[C@H]3CN([C@H]4c5ccccc5CCc5cc(Br)cnc54)CCN3C(=O)OC3CCCCC3)C2)cn1

128 to 134 °C
98 to 112 °C
120 to 124 °C
